# System: HCT116 (human colon cancer ATCC CCl-247)
# PROTOCOL_NOTES: MTT cytotoxicity assay, HCT116 cell line
# Assay type: cell-based
# MEASUREMENT_PARAMETERS: 24 h treatment, HCT116 cells, read-out: HCT116 cell line (Colon cancer) IC50 ± SD
MEASURED_ENDPOINT: IC50 (µM)
Just the number in µM, nothing appended.

Which measured IC50 value corresponds to N.N.[Cl][Pt][Cl] [cisplatin, reference compound] ? 11.2

###

# Tested on: HeLa (human cervical carcinoma ATCC CCl-2)
# PROTOCOL_NOTES: MTT cytotoxicity assay, HeLa cell line
# Format: cell-based
# MEASUREMENT_PARAMETERS: 24 h treatment, HeLa cells, read-out: HeLa cell line (Cervical cancer) IC50 ± SD
MEASURED_ENDPOINT: pIC50
Expect pIC50 as a plain number equal to -log10 of the molar concentration.

Which measured pIC50 value corresponds to N.N.[Cl][Pt][Cl] [cisplatin, reference compound] ? 4.40

###

# Test system: PC-3 (human prostate cancer ATCC CRL-1435)
# PROTOCOL_NOTES: MTT cytotoxicity assay, PC-3 cell line
# Assay type: cell-based
# MEASUREMENT_PARAMETERS: Homo sapiens, PC-3, 24 h, 24 h treatment, PC3 cells, read-out: PC3 cell line (Prostate cancer) IC50 ± SD
# Procedure: The cytotoxicity of samples was measured against HeLa (human cervical carcinoma ATCC CCl-2), PC-3 (human prostate cancer ATCC CRL-1435), NCl-H460 (human lung carcinoma ATCC HTB-177), HCT116 (human colon cancer ATCC CCl-247), and 3T3 (control fibroblast normal ATCC CRL-1658) cell lines by using standard MTT assay. Cell lines were grown in DMEM F12 media, supplemented with 10% FBS under a 5% CO2 atmosphere at 37°C in an incubator. […]
MEASURED_ENDPOINT: IC50 (µM)
Just the number in µM, nothing appended.

Here is how some compounds turned out for IC50.
{"columns": ["COMPOUND", "RECORDED_MEASUREMENT"],
 "data": [
  ["CC1=C[C@@]2(C)C(=CC1=O)CC[C@@H]1[C@@H]2CC[C@]2(C)C(=O)CC[C@@H]12", 84],
  ["CC1=C[C@@]2(C)C(=CC1=O)CC[C@@H]1[C@@H]2[C@H](O)C[C@]2(C)C(=O)CC[C@@H]12", 58.4],
  ["CC1=C[C@@]2(C)C(=CC1=O)CC[C@@H]1[C@@H]2CC[C@]2(C)C(=O)CC[C@@]12O", 59.1]
]}

Which measured IC50 value corresponds to C[C@@H]1C[C@@]2(C)[C@@H](CC[C@@H]3[C@@H]2CC[C@]2(C)[C@@H](O)CC[C@@H]32)CC1=O ? 57.8

Which measured IC50 value corresponds to CCCCCCC(=O)OC1CCC2C3CCC4CC(=O)C(C)CC4(C)C3CCC12C (stereo not drawn) [Compound 1, drostanolone enanthate] ? 96.2

Which measured IC50 value corresponds to C[C@@H]1C[C@@]2(C)[C@H](CC1=O)C[C@@H](O)[C@@H]1[C@@H]2CC[C@]2(C)C(=O)CC[C@@H]12 ? 68

Which measured IC50 value corresponds to C[C@@H]1C[C@@]2(C)[C@@H](CC[C@@H]3[C@@H]2CC[C@]2(C)[C@@H](O)CC[C@@]32O)C[C@@H]1O ? 84.6

Which measured IC50 value corresponds to C[C@@H]1C[C@@]2(C)[C@@H](CC[C@@H]3[C@@H]2CC[C@]2(C)[C@@H](O)CC[C@@H]32)C[C@@H]1O [Compound 4, 2α-methyl-3α,17β-dihydroxy-5α-androstane] ? 60.4

Which measured IC50 value corresponds to CC1=C[C@@]2(C)[C@H](CC1=O)C[C@@H](O)[C@@H]1[C@@H]2CC[C@]2(C)C(=O)CC[C@@H]12 ? 51.8
